target_system: full-length human BTK (Homo sapiens)
Construct: 2.5× stocks of full-length human BTK (08-080); purchased CarnaBio USA, Inc., Natick, Mass; 08-080
experimental_protocol: Assay A: BTK IC50 Enzyme Assay (microfluidic off-chip mobility shift kinase assay)
Format: biochemical
condition_summary: full-length human BTK, kinKDR peptide substrate, incubated 90 min at 27 C; read-out: Assay A (Time Dependent BTK Enzyme Assay IC50)
measured_endpoint: IC50

Measured IC50, C=CC(=O)N1CCC(c2ncc(C(N)=O)c(Oc3ccc(Oc4ccccc4)cc3)n2)C1 (stereo not shown) : 100 to 1000 nM

"C=CC(=O)N[C@H]1CCN(c2ccc(C(N)=O)c(Nc3cccc(C)c3)n2)C1" has a reported IC50 of < 100 nM

Entry under test: C=CC(=O)N1CCC(Nc2ncc(C(N)=O)c(Oc3ccc(Oc4ccccc4)cc3)n2)CC12CCC2 (stereo not shown) . Its IC50 was 100 to 1000 nM

Given item "NC(=O)c1ccc(C2CCN(C(=O)/C=C/CN3CCN(CCNC(=O)CCCC[C@@H]4SC[C@@H]5NC(=O)N[C@@H]54)CC3)CC2)nc1Oc1ccc(Oc2ccccc2)cc1" , the value recorded as its IC50 is 100 to 1000 nM

###

target_system: full-length human BTK (Homo sapiens)
Construct: 2.5× stocks of full-length human BTK (08-080); purchased CarnaBio USA, Inc., Natick, Mass; 08-080
experimental_protocol: Assay A: BTK IC50 Enzyme Assay (microfluidic off-chip mobility shift kinase assay)
Type: biochemical
condition_summary: full-length human BTK, kinKDR peptide substrate, incubated 90 min at 27 C; read-out: Assay A (Time Dependent BTK Enzyme Assay IC50)
measured_endpoint: IC50

Lab entry: full-length human BTK (Homo sapiens) assay, compound "C=CC(=O)N1CCC(c2ccc(C(N)=O)c(Nc3ccc(N4C[C@@H](C)O[C@@H](C)C4)nc3)n2)CC1" , IC50 = < 100 nM

Result for "C=CC(=O)N1CCN(c2ncc(C(N)=O)c(Oc3ccc(Oc4ccccc4)cc3)n2)CC1" , tested on full-length human BTK (Homo sapiens), IC50: < 100 nM

# value of IC50, full-length human BTK (Homo sapiens), item "C=CC(=O)N[C@H]1CCN(c2ncc(C(N)=O)c(Nc3ccc(C(=O)NC(C)(C)C)cc3)n2)C1" = < 100 nM

I looked up "C=CC(=O)N1CCC=C(c2ccc(C(N)=O)c(Oc3ccc(Oc4ccccc4)cc3)n2)C1" and its IC50 for full-length human BTK (Homo sapiens) was < 100 nM

Assay full-length human BTK (Homo sapiens), sample C=CC(=O)N1CCC(Nc2cnc(Oc3ccc(Oc4ccccc4)cc3)c(C(N)=O)c2)C1 (stereo not shown) , IC50 read: < 100 nM

I looked up N#CN1CCCC(c2cnc(Oc3ccc(Oc4ccccc4)cc3)c(C(N)=O)c2)C1 (stereo not shown) and its IC50 for full-length human BTK (Homo sapiens) was < 100 nM

Lab entry: full-length human BTK (Homo sapiens) assay, compound C/C=C/C(=O)N1CC2CN(c3cnc(Oc4ccc(Oc5cccc(F)c5)cc4)c(C(N)=O)c3)CC2C1 (stereo not shown) , IC50 = > 5000 nM

###

target_system: full-length human BTK (Homo sapiens, UniProt Q06187)
Construct: 2.5× stocks of full-length human BTK (08-080); purchased CarnaBio USA, Inc., Natick, Mass; 08-080
Sequence (Q06187 whole entry): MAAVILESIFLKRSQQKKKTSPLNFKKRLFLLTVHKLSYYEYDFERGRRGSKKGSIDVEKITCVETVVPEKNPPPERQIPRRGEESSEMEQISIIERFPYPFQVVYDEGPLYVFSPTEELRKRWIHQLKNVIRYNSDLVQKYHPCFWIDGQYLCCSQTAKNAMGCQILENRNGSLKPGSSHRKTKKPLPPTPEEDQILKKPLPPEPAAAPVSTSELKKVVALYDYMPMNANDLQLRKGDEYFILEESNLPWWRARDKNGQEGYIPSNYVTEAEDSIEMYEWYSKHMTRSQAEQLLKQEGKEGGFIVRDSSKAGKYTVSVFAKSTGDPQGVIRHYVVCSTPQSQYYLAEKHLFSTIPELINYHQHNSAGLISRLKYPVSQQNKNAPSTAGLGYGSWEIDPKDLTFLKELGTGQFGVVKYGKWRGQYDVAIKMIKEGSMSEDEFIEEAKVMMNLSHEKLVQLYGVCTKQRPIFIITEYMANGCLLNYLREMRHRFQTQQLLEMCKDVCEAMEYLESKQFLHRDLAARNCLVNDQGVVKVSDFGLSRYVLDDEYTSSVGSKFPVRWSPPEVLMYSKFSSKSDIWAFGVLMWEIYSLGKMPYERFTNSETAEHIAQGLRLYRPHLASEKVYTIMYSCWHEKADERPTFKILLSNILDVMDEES
experimental_protocol: Assay A: BTK IC50 Enzyme Assay (microfluidic off-chip mobility shift kinase assay)
Format: biochemical
condition_summary: full-length human BTK, kinKDR peptide substrate, incubated 90 min at 27 C; read-out: Assay A (Time Dependent BTK Enzyme Assay IC50)
measured_endpoint: IC50

So for C=CC(=O)N1CCC2(CCN(c3ccc(C(N)=O)c(Nc4ccc(CCN5CCCC5)cc4)n3)C2)C1 (centres unmarked) , the logged IC50 turned out to be < 100 nM

Entry "C=CC(=O)NC1CCN(c2cnc(Oc3ccc(Oc4cccc(F)c4)cc3)c(C(N)=O)c2)CC1" , IC50 reported as 100 to 1000 nM

For reference, reported IC50 for C=CC(=O)N1CCC(Nc2ccc(C(N)=O)c(Nc3cccc(C)c3)n2)C1 (centres unmarked) stands at < 100 nM

Summary for this compound, C/C=C/C(=O)N1CCC(c2cnc(Oc3ccc(Oc4cccc(F)c4)cc3)c(C(N)=O)c2)C1 (centres unmarked) : IC50 is 1000 to 5000 nM

Measured IC50, "C=CC(=O)N[C@H]1CCN(c2ccc(C(N)=O)c(Nc3ccc(CCN4CCC(F)(F)C4)cc3)n2)C1" : < 100 nM

Per the record, C/C=C/C(=O)NC1CCN(c2cnc(Oc3ccc(Oc4cccc(F)c4)cc3)c(C(N)=O)c2)C1 (centres unmarked) has IC50 of > 5000 nM

"C=CC(=O)N[C@H]1CCN(c2ccc(C(N)=O)c(Nc3ccc(N4CCCC4)nc3)n2)C1" has a reported IC50 of < 100 nM

Entry "C=CC(=O)N[C@H]1CCN(c2ccc(C(N)=O)c(NCCN3CCOCC3)n2)C1" , IC50 reported as > 5000 nM

// IC50 lookup, compound = "C=CC(=O)N1CCC(c2ccc(C(N)=O)c(Nc3ccc(C(=O)N4CCN(C(=O)CCCCNC(=S)Nc5ccc(C6=C7C(C)=CC(C)=[N+]7[B-](F)(F)n7c(C)cc(C)c76)cc5)CC4)cc3)n2)CC1" , result: < 100 nM

The compound listed as "C=CC(=O)N1C[C@@H]2C[C@H]1CN2c1ncc(C(N)=O)c(Oc2ccc(Oc3ccccc3)cc2)n1" shows IC50 equal to < 100 nM

Documented IC50 of "C=CC(=O)N[C@H]1C[C@H](Nc2ncc(C(N)=O)c(Oc3ccc(Oc4ccccc4)cc3)n2)C1" : 100 to 1000 nM

Measured IC50, "C=CC(=O)N[C@H]1CCN(c2ccc(C(N)=O)c(Oc3cnn(Cc4ccccc4)c3)n2)C1" : 1000 to 5000 nM

IC50 for "C=CC(=O)N[C@H]1CCN(c2nc(Nc3ccc(CCN4CCCC4)cc3)c(C(N)=O)cc2F)C1" is < 100 nM

"C=CC(=O)N1CC=C(c2ccc(C(N)=O)c(Oc3ccc(Oc4ccccc4)cc3)n2)C1" has a reported IC50 of 100 to 1000 nM

"C=CC(=O)N[C@H]1CCN(c2ccc(C(N)=O)c(Oc3ccc(Oc4cccc(F)c4)cc3)n2)C1" yielded IC50 of < 100 nM

For this compound ( "C=CC(=O)N[C@H]1CCN(c2nc(Nc3ccc(CCN4CCCC4)cc3)c(F)cc2C(N)=O)C1" ), measured IC50 is 100 to 1000 nM

Quick note, IC50 for "C=CC(=O)N[C@H]1CCN(c2ncc(C(N)=O)c(Nc3ccc(C(=O)N4CCOCC4)cc3)n2)C1" landed at < 100 nM

For this compound ( "C=CC(=O)N[C@@H]1CCCN(c2nc(Nc3ccc(N4CCN(C)CC4)cc3)c(C(N)=O)cc2F)C1" ), measured IC50 is < 100 nM

Looking up "C=CC(=O)N[C@H]1CCN(c2cc(Oc3ccc(Oc4ccccc4)cc3)c(C(N)=O)cn2)C1" , I found its IC50 recorded as < 100 nM

get_value(item= N#CN1CCC(c2cnc(Oc3ccc(Oc4ccccc4)cc3)c(C(N)=O)c2)C1 (centres unmarked) , readout=IC50) returns 1000 to 5000 nM

// sample C=CC(=O)NC1CCN(c2cnc(Oc3ccc(Oc4cccc(F)c4)cc3)c(C(N)=O)c2)C1 (centres unmarked) , its IC50 was 100 to 1000 nM

Noted for "C=CC(=O)N1C2CCC1CN(c1ncc(C(N)=O)c(Oc3ccc(Oc4ccccc4)cc3)n1)C2" : its IC50 reads < 100 nM

Short answer for "C=CC(=O)N1CCN(c2ccc(C(N)=O)c(Nc3ccc(C)nc3)n2)CC1" : IC50 was < 100 nM

compound "C=CC(=O)N[C@@H]1CN(c2ccc(C(N)=O)c(Nc3ccc(CCN4CCCC4)cc3)n2)CC12CC2" , IC50 observed: < 100 nM

The compound listed as "C=CC(=O)N[C@H]1CCN(c2ccc(C(N)=O)c(Nc3ccc(C(=O)N(C)C)cc3)n2)C1" shows IC50 equal to < 100 nM

Consider C=CC(=O)N1CC2CN(c3cnc(Oc4ccc(Oc5ccccc5)cc4)c(C(N)=O)c3)CC2C1 (centres unmarked) . Its measured IC50 is 100 to 1000 nM

Lab note: measured IC50 of C=CC(=O)N1CCC(c2ccc(C(N)=O)c(Nc3ccc(C(=O)N4CCCC(NC(=O)CCOCCOCCOCCOCCNC(=O)CCCC[C@@H]5SCC6NC(=O)NC65)C4)cc3)n2)CC1 (some centres unmarked) was < 100 nM

Given item C=CC(=O)NC1CCCN(c2cnc(Oc3ccc(Oc4cccc(F)c4)cc3)c(C(N)=O)c2)C1 (centres unmarked) , the value recorded as its IC50 is 1000 to 5000 nM

Memo: C/C=C/C(=O)N1CCC(Nc2cnc(Oc3ccc(Oc4cccc(F)c4)cc3)c(C(N)=O)c2)C1 (centres unmarked) , reported IC50: 1000 to 5000 nM
